Tested on: Herpes simplex type 1 virus (HFEM strain)
RUN_DESCRIPTION: Plaque reduction test in Vero cells infected with Herpes simplex type 1 virus
Format: cell-based
ASSAY_CONDITIONS: Human alphaherpesvirus 1, 144 h, same PDD50 values given in µM, 6 days at 37°C, read-out: PDD50 (the source's name)

>  <SMILES_REPRESENTATION>
CC(C)(C)OC(=O)NCC(=O)OC[C@H]1O[C@@H](n2cc(/C=C/Br)c(=O)[nH]c2=O)C[C@@H]1O

>  <TARGET_OR_SYSTEM>
Herpes simplex type 1 virus (HFEM strain)

>  <IC50 / µM>
1.1

$$$$
>  <SMILES_REPRESENTATION>
CC(C)(C)OC(=O)N1CCC[C@H]1C(=O)O[C@H]1C[C@H](n2cc(/C=C/Br)c(=O)[nH]c2=O)O[C@@H]1CO

>  <TARGET_OR_SYSTEM>
Herpes simplex type 1 virus (HFEM strain)

>  <IC50 / µM>
1.21

$$$$
>  <SMILES_REPRESENTATION>
CC(C)(C)OC(=O)N1CCC[C@H]1C(=O)OC[C@H]1O[C@@H](n2cc(/C=C/Br)c(=O)[nH]c2=O)C[C@@H]1O

>  <TARGET_OR_SYSTEM>
Herpes simplex type 1 virus (HFEM strain)

>  <IC50 / µM>
4

$$$$
>  <SMILES_REPRESENTATION>
CSCC[C@H](NC(=O)OC(C)(C)C)C(=O)OC[C@H]1O[C@@H](n2cc(/C=C/Br)c(=O)[nH]c2=O)C[C@@H]1OC(=O)[C@H](CCSC)NC(=O)OC(C)(C)C

>  <TARGET_OR_SYSTEM>
Herpes simplex type 1 virus (HFEM strain)

>  <IC50 / µM>
2.15

$$$$
>  <SMILES_REPRESENTATION>
CC(C)(C)OC(=O)NCC(=O)O[C@H]1C[C@H](n2cc(/C=C/Br)c(=O)[nH]c2=O)O[C@@H]1CO

>  <TARGET_OR_SYSTEM>
Herpes simplex type 1 virus (HFEM strain)

>  <IC50 / µM>
0.98

$$$$

###

Overview of recorded MCC at 144 h for various compounds
RUN_DESCRIPTION: Minimum concentration killing the Vero cell monolayer, read in the plaque reduction test
Type: cell-based, African Green Monkey
ASSAY_CONDITIONS: african green monkey; minimum concentration which killed the cell monolayer; virus-infected Vero cells, 6 days at 37°C; read-out: MTD
Where a name gives a salt, the structure may show the parent alone.

>  <COMPOUND>
CC(C)(C)OC(=O)N1CCC[C@H]1C(=O)OC[C@H]1O[C@@H](n2cc(/C=C/Br)c(=O)[nH]c2=O)C[C@@H]1OC(=O)[C@@H]1CCCN1C(=O)OC(C)(C)C

>  <MCC at 144 h>
100 µg/mL

$$$$
>  <COMPOUND>
CC(C)(C)OC(=O)N1CCC[C@H]1C(=O)O[C@H]1C[C@H](n2cc(/C=C/Br)c(=O)[nH]c2=O)O[C@@H]1CO

>  <MCC at 144 h>
100 µg/mL

$$$$
>  <COMPOUND>
CC(C)C[C@H](N)C(=O)OC[C@H]1O[C@@H](n2cc(/C=C/Br)c(=O)[nH]c2=O)C[C@@H]1OC(=O)[C@@H](N)CC(C)C [Example 16, trifluoroacetate]

>  <MCC at 144 h>
> 100 µg/mL

$$$$
>  <COMPOUND>
NCC(=O)OC[C@H]1O[C@@H](n2cc(/C=C/Br)c(=O)[nH]c2=O)C[C@@H]1OC(=O)CN [Example 14, bis trifluoroacetate]

>  <MCC at 144 h>
> 100 µg/mL

$$$$
>  <COMPOUND>
CC[C@H](C)[C@H](NC(=O)OC(C)(C)C)C(=O)OC[C@H]1O[C@@H](n2cc(/C=C/Br)c(=O)[nH]c2=O)C[C@@H]1OC(=O)[C@@H](NC(=O)OC(C)(C)C)[C@@H](C)CC

>  <MCC at 144 h>
> 100 µg/mL

$$$$
>  <COMPOUND>
NC(Cc1ccccc1)C(=O)OC[C@H]1O[C@@H](n2cc(/C=C/Br)c(=O)[nH]c2=O)C[C@@H]1OC(=O)C(N)Cc1ccccc1 (some centres unmarked)

>  <MCC at 144 h>
> 100 µg/mL

$$$$
>  <COMPOUND>
CC(C)C[C@@H](NC(=O)OC(C)(C)C)C(=O)OC[C@H]1O[C@@H](n2cc(/C=C/Br)c(=O)[nH]c2=O)C[C@@H]1OC(=O)[C@@H](CC(C)C)NC(=O)OC(C)(C)C

>  <MCC at 144 h>
> 100 µg/mL

$$$$
>  <COMPOUND>
CSCC[C@H](N)C(=O)OC[C@H]1O[C@@H](n2cc(/C=C/Br)c(=O)[nH]c2=O)C[C@@H]1OC(=O)[C@@H](N)CCSC [Example 32, bis trifluoroacetate]

>  <MCC at 144 h>
> 100 µg/mL

$$$$
>  <COMPOUND>
CC(C)(C)OC(=O)NCC(=O)O[C@H]1C[C@H](n2cc(/C=C/Br)c(=O)[nH]c2=O)O[C@@H]1CO

>  <MCC at 144 h>
> 100 µg/mL

$$$$
>  <COMPOUND>
O=C(O[C@H]1C[C@H](n2cc(/C=C/Br)c(=O)[nH]c2=O)O[C@@H]1CO)[C@@H]1CCCN1 [Example 37, trifluoroacetate]

>  <MCC at 144 h>
> 100 µg/mL

$$$$
>  <COMPOUND>
CC(C)(C)OC(=O)NCC(=O)OC[C@H]1O[C@@H](n2cc(/C=C/Br)c(=O)[nH]c2=O)C[C@@H]1O

>  <MCC at 144 h>
> 100 µg/mL

$$$$

###

Test system: Herpes simplex type 1 virus (HFEM strain)
RUN_DESCRIPTION: Plaque reduction test in Vero cells infected with Herpes simplex type 1 virus
Format: cell-based
ASSAY_CONDITIONS: read-out: PDD50, same PDD50 values given in µM, 6 days at 37°C, trifluoroacetate
Where a name gives a salt, the structure may show the parent alone.

>  <COMPOUND>
CC(C)C[C@H](N)C(=O)OC[C@H]1O[C@@H](n2cc(/C=C/Br)c(=O)[nH]c2=O)C[C@@H]1OC(=O)[C@@H](N)CC(C)C [Example 16, trifluoroacetate]

>  <TARGET_OR_SYSTEM>
Herpes simplex type 1 virus (HFEM strain)

>  <IC50, µM>
0.025

$$$$

###

Test system: Herpes simplex type 1 virus (HFEM strain)
RUN_DESCRIPTION: Plaque reduction test in Vero cells infected with Herpes simplex type 1 virus
Format: cell-based
ASSAY_CONDITIONS: Human alphaherpesvirus 1, 144 h, same PDD50 values given in µM, 6 days at 37°C, read-out: PDD50 (the source's name)
# note: exactly 0.9 µM is not below, so it is criterion not met; use criterion met for IC50 strictly under it

>  <SMILES_REPRESENTATION>
CC(C)(C)OC(=O)N[C@@H](Cc1ccccc1)C(=O)OC[C@H]1O[C@@H](n2cc(/C=C/Br)c(=O)[nH]c2=O)C[C@@H]1OC(=O)[C@H](Cc1ccccc1)NC(=O)OC(C)(C)C

>  <CLASSIFICATION>
criterion not met

$$$$
>  <SMILES_REPRESENTATION>
CC(C)(C)OC(=O)NCC(=O)OC[C@H]1O[C@@H](n2cc(/C=C/Br)c(=O)[nH]c2=O)C[C@@H]1OC(=O)CNC(=O)OC(C)(C)C

>  <CLASSIFICATION>
criterion not met

$$$$
>  <SMILES_REPRESENTATION>
CC(C)(C)OC(=O)NCCCC[C@H](NC(=O)OC(C)(C)C)C(=O)OC[C@H]1O[C@@H](n2cc(/C=C/Br)c(=O)[nH]c2=O)C[C@@H]1OC(=O)[C@H](CCCCNC(=O)OC(C)(C)C)NC(=O)OC(C)(C)C

>  <CLASSIFICATION>
criterion not met

$$$$
>  <SMILES_REPRESENTATION>
CC(C)(C)OC(=O)N[C@@H](CCC(N)=O)C(=O)OC[C@H]1O[C@@H](n2cc(/C=C/Br)c(=O)[nH]c2=O)C[C@@H]1OC(=O)[C@H](CCC(N)=O)NC(=O)OC(C)(C)C

>  <CLASSIFICATION>
criterion met

$$$$
>  <SMILES_REPRESENTATION>
CC(C)(C)OC(=O)N1CCC[C@H]1C(=O)OC[C@H]1O[C@@H](n2cc(/C=C/Br)c(=O)[nH]c2=O)C[C@@H]1OC(=O)[C@@H]1CCCN1C(=O)OC(C)(C)C

>  <CLASSIFICATION>
criterion not met

$$$$
>  <SMILES_REPRESENTATION>
CC(C)(C)OC(=O)N[C@@H](Cc1ccccc1)C(=O)O[C@H]1C[C@H](n2cc(/C=C/Br)c(=O)[nH]c2=O)O[C@@H]1CO

>  <CLASSIFICATION>
criterion met

$$$$
>  <SMILES_REPRESENTATION>
CC(C)C[C@H](NC(=O)OC(C)(C)C)C(=O)OC[C@H]1O[C@@H](n2cc(/C=C/Br)c(=O)[nH]c2=O)C[C@@H]1OC(=O)[C@H](CC(C)C)NC(=O)OC(C)(C)C

>  <CLASSIFICATION>
criterion not met

$$$$
>  <SMILES_REPRESENTATION>
CC(C)(C)OC(=O)N[C@@H](Cc1ccccc1)C(=O)OC[C@H]1O[C@@H](n2cc(/C=C/Br)c(=O)[nH]c2=O)C[C@@H]1O

>  <CLASSIFICATION>
criterion met

$$$$

The measured values listed here are drawn from patent EP0080305A1.
